Reported values of EC50 for individual entries
Target: T1, human SIRPγ stably expressed on 293F cells (human, UniProt Q9P1W8 29-387)
T1 construct: whole, on cells
T1 sequence (Q9P1W8 29-387): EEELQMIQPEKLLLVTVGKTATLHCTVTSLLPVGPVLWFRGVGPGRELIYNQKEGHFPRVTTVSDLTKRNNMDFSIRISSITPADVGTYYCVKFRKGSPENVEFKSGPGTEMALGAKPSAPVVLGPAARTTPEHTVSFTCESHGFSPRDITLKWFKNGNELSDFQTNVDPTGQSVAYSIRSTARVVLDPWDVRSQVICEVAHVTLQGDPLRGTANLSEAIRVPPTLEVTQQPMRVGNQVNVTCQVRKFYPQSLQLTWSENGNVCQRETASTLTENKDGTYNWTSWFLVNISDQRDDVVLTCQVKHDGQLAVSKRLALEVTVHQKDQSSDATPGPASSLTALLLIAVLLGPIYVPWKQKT
Assay: FACS, 293F-hSIRPγ cells
Quick note: give the figure in nM, leave out the unit.

These recorded examples may help you get a feel for the data.
{"Binder": "025c (antibody, V domains shown, also called chimeric antibody 025c; parental antibody of 025c) VH: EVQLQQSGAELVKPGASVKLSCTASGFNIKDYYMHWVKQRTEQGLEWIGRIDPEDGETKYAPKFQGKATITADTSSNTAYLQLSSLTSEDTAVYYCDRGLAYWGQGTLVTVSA VL: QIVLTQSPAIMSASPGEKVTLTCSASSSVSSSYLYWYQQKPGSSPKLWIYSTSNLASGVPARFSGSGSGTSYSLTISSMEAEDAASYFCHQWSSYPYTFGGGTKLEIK", "Result number": 0.2}
{"Binder": "hu025.059 (antibody, V domains shown, Humanized 025; also called hu025.59) VH: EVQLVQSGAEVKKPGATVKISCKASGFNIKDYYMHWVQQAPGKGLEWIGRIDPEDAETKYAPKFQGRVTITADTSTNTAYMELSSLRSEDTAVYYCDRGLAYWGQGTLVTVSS VL: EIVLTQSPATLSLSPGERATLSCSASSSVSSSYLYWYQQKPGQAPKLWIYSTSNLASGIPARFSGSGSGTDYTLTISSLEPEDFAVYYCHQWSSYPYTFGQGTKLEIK", "Result number": 0.2}

Consider the record given below.
EC50 lookup needed for hu025.033 (antibody, V domains shown, Humanized 025) VH: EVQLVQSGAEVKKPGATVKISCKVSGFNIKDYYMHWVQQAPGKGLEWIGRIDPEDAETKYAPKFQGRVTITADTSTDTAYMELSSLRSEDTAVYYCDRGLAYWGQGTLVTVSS VL: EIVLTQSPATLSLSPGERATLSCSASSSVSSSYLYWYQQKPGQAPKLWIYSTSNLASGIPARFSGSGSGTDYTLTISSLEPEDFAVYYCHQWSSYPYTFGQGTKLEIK , thanks.
0.21
